The reader will find reported inhibition values listed item by item below.
Target: Aldo-keto reductase family 1 member B1 (Bos taurus)
Assay: In vitro inhibition of aldose reductase in partially purified bovine lens preparation at a concentration of 10e -7M.
The reply should be a number in %, with the unit left off.

{"SUBSTANCE_SMILES": "Cc1c(C)n(Cc2ccc(Cl)c(Cl)c2)c(=O)n(CC(=O)O)c1=O", "DISPLAY_UNIT": "%", "inhibition": 39}

Value of inhibition reported for the molecule O=C(O)Cn1c(=O)c2c3c(sc2n(Cc2ccc(Cl)c(Cl)c2)c1=O)CCCC3 is 86

Value of inhibition reported for the molecule O=C(O)Cn1c2ccc(Cl)cc2c(=O)n1Cc1ccc(Cl)c(Cl)c1 is 63

Value of inhibition reported for the molecule O=C(O)Cn1c(=O)c2cc(Br)ccc2n(Cc2ccc(F)c(F)c2)c1=O is 30

Value of inhibition reported for the molecule Cc1nc2ccc(Br)cc2c(=S)n1CC(=O)O is 54

Value of inhibition reported for the molecule O=C(O)Cn1c(=O)c2cc(Br)ccc2n(Cc2ccc(Cl)c(Cl)c2)c1=O is 83
